# System: BT-549 breast
# Assay method text: NCI-60 one-dose screen, 48 h
# Experimental conditions: 10 µM unless noted
About 83,000 compounds went through this panel and 20% of them were active in at least one assay; those are over-represented in the sample as a whole. Active and inactive are the calls of the source. How the source made its calls: active means growth percent below 10; inactive means the rest.
Outcome codes: active, inactive

Compound | Test target | Group label
C#CCNC(=O)CC[C@]1(C)[C@H]2CC[C@@H]3[C@@H]([C@@](C)(O)CCC=C(C)C)CC[C@@]3(C)[C@]2(C)CC[C@H]1C(=C)C | BT-549 breast | inactive
ClC1=C(Cl)C(Cl)=C(Cl)C1=Cc1ccccc1 | BT-549 breast | active
O=C(Nc1ccc(Oc2ccc(F)cc2)c(Cl)c1)c1cccnn1 | BT-549 breast | inactive
CCN(CC)c1cc(N)c(Cc2c(N)cc(N(CC)CC)cc2Cl)c(Cl)c1 | BT-549 breast | inactive
CC(C)OC(=O)Nc1cc(F)ccc1F | BT-549 breast | inactive
COc1ccc(C(=O)/C=C/c2ccccn2)c(O)c1 | BT-549 breast | inactive
CC1(C)CC[C@]2(C(N)=O)CC[C@]3(C)C(=CC[C@@H]4[C@@]5(C)C/C(=C/c6ccncc6)C(=O)C(C)(C)[C@@H]5CC[C@]43C)[C@@H]2C1 | BT-549 breast | active
COc1cc(NCc2cn(-c3ccc(C(=O)O)cc3)nc2-c2ccc(C(=O)O)cc2)cc(OC)c1OC | BT-549 breast | inactive
C=C(CN=[N+]=[N-])[C@@H]1CC[C@]2(C)[C@H](CC[C@@H]3[C@H]4[C@H]5OC(=O)[C@@]4(CCC5(C)C)CC[C@]32C)[C@@]1(C)CCC#N | BT-549 breast | inactive
CC(C)=CCC[C@](C)(O)[C@H]1CC[C@]2(C)[C@@H]1CC[C@@H]1[C@@]3(C)CC/C(=N/O)C(C)(C)[C@@H]3CC[C@]12C | BT-549 breast | active
CCN(CC)CCCNCc1cc(-c2ccccc2)nc2ccccc12 | BT-549 breast | inactive
COc1ccc(-c2ccc(NNC(=O)c3ccc(F)cc3)nn2)cc1OC | BT-549 breast | inactive
CCN(CC)c1ccc2cc(C(Nc3ccc(Br)c(C(F)(F)F)c3)c3nnnn3C(C)(C)C)c(=O)oc2c1 (configuration not stated) | BT-549 breast | inactive
Cc1nc(-c2ccccc2)sc1CC#N | BT-549 breast | inactive
C=C(C)[C@@H]1CC[C@]2(C(N)=O)CC[C@]3(C)[C@H](CC[C@@H]4[C@@]5(C)C/C(=C/c6cccnc6)[C@H](O)C(C)(C)[C@@H]5CC[C@]43C)[C@@H]12 | BT-549 breast | inactive
C#C[C@]1(O)CC[C@H]2[C@@H]3CC=C4c5nc(Nc6ccccc6[N+](=O)[O-])sc5CC[C@]4(C)[C@H]3CC[C@@]21C | BT-549 breast | inactive
CCOC(=O)C(c1ccccc1)N1C(=O)c2ccccc2C1=O (configuration not stated) | BT-549 breast | inactive
CCCCCCCCN(CCCCCCCC)CC(O)c1ccc(Cl)c(C)c1Cl (configuration not stated) | BT-549 breast | inactive
CC(C)(C)OC(=O)N1C=C/C(=C\Cn2cc(-c3ccccc3)nn2)CC1 | BT-549 breast | inactive
CCOC(=O)c1nn(C2CCCCO2)c2ccc(NC(=O)CSc3nc4ccccc4c(=O)[nH]3)cc12 (configuration not stated) | BT-549 breast | inactive
CC(C)c1ccc(C(=O)Nc2sc3c(c2C#N)CCC(=O)C3)cc1 | BT-549 breast | active
COc1ccc(OC)c(NC=O)c1 | BT-549 breast | inactive
